Target: SpLsb4
Experiment: SPOT peptide array binding signal intensity (averaged, normalized) (arbitrary units (background-subtracted, floor 0; scale differs between SH3 domains)); higher = stronger binding of the SH3 domain to the peptide
measuredMetric: SPOT peptide array binding signal intensity
One number for each entry.

Here's what some known entries look like.
binder | measuredResult
VATSTSPKLPPRGKQ | 6830
AVPPPPPPPPLPESL | 27

Given item `ERPKRRAPPPVPKKP` , the value recorded as its SPOT peptide array binding signal intensity is 489
